# Substrate: O=c1ccn([C@@H]2O[C@H](COP(=O)(O)OP(=O)(O)O[C@H]3O[C@H](CO)[C@H](O)[C@H](O)[C@H]3O)[C@@H](O)[C@H]2O)c(=O)[nH]1
# assay_remarks: galactosyltransferase assay, HPLC-UV
# Format: biochemical, Homo sapiens
# condition_description: apparent, fixed 5 mM 4-MUX, 10 mM MnCl2, 100 mM sodium cacodylate pH 7.0, 37 °C
reported_metric: kcat/Km (M⁻¹ s⁻¹)
Give bare numbers, in M⁻¹ s⁻¹.

# count of solved cases: 3
{"protein": "hβ4GalT7 (GST-β4GalT7) (Homo sapiens; Y199F) (protein, truncated soluble form lacking the first 60 N-terminal amino acids (transmembrane domain and part of stem), GST fusion (tag kept), pET-41a(+), E. coli BL21(DE3), glutathione-Sepharose purified) VRGQGQETSGPPRACPPEPPPEHWEEDASWGPHRLAVLVPFRERFEELLVFVPHMRRFLSRKKIRHHIYVLNQVDHFRFNRAALINVGFLESSNSTDYIAMHDVDLLPLNEELDYGFPEAGPFHVASPELHPLYHYKTFVGGILLLSKQHYRLCNGMSNRFWGWGREDDEFYRRIKGAGLQLFRPSGITTGYKTFRHLHDPAWRKRDQKRIAAQKQEQFKVDREGGLNTVKYHVASRTALSVGGAPCTVLNIMLDCDKTATPWCTFS", "reported_metric": "kcat/Km", "numeric_readout": 4050}
{"protein": "hβ4GalT7 (GST-β4GalT7) (Homo sapiens) (protein, truncated soluble form lacking the first 60 N-terminal amino acids (transmembrane domain and part of stem), GST fusion (tag kept), pET-41a(+), E. coli BL21(DE3), glutathione-Sepharose purified) VRGQGQETSGPPRACPPEPPPEHWEEDASWGPHRLAVLVPFRERFEELLVFVPHMRRFLSRKKIRHHIYVLNQVDHFRFNRAALINVGFLESSNSTDYIAMHDVDLLPLNEELDYGFPEAGPFHVASPELHPLYHYKTYVGGILLLSKQHYRLCNGMSNRFWGWGREDDEFYRRIKGAGLQLFRPSGITTGYKTFRHLHDPAWRKRDQKRIAAQKQEQFKVDREGGLNTVKYHVASRTALSVGGAPCTVLNIMLDCDKTATPWCTFS", "reported_metric": "kcat/Km", "numeric_readout": 7080}
{"protein": "hβ4GalT7 (GST-β4GalT7) (Homo sapiens; H195A) (protein, truncated soluble form lacking the first 60 N-terminal amino acids (transmembrane domain and part of stem), GST fusion (tag kept), pET-41a(+), E. coli BL21(DE3), glutathione-Sepharose purified) VRGQGQETSGPPRACPPEPPPEHWEEDASWGPHRLAVLVPFRERFEELLVFVPHMRRFLSRKKIRHHIYVLNQVDHFRFNRAALINVGFLESSNSTDYIAMHDVDLLPLNEELDYGFPEAGPFHVASPELHPLYAYKTYVGGILLLSKQHYRLCNGMSNRFWGWGREDDEFYRRIKGAGLQLFRPSGITTGYKTFRHLHDPAWRKRDQKRIAAQKQEQFKVDREGGLNTVKYHVASRTALSVGGAPCTVLNIMLDCDKTATPWCTFS", "reported_metric": "kcat/Km", "numeric_readout": 4850}

Here is another protein to look at.
What measured kcat/Km goes with hβ4GalT7 (GST-β4GalT7) (Homo sapiens; R270A) (protein, truncated soluble form lacking the first 60 N-terminal amino acids (transmembrane domain and part of stem), GST fusion (tag kept), pET-41a(+), E. coli BL21(DE3), glutathione-Sepharose purified) VRGQGQETSGPPRACPPEPPPEHWEEDASWGPHRLAVLVPFRERFEELLVFVPHMRRFLSRKKIRHHIYVLNQVDHFRFNRAALINVGFLESSNSTDYIAMHDVDLLPLNEELDYGFPEAGPFHVASPELHPLYHYKTYVGGILLLSKQHYRLCNGMSNRFWGWGREDDEFYRRIKGAGLQLFRPSGITTGYKTFRHLHDPAWRKRDQKAIAAQKQEQFKVDREGGLNTVKYHVASRTALSVGGAPCTVLNIMLDCDKTATPWCTFS ?
3070
